- Target or test system: Glucocorticoid Receptor (GR) (Homo sapiens, UniProt P04150)
- Construct: purchased Invitrogen P2893
- Test details: GR Fluorescence Polarization Assay (PolarScreen Glucocorticoid Receptor Competitor Assay, Red)
- Assay setup: IC50 class ranges, read-out: GR binding
Parameter: IC50. Scope: all listed entries.

- Compound: "Cn1nc(-c2ccccn2)c2c1NCC[S+]([O-])C2c1ccc(Cl)cc1Cl (stereo not drawn) [L.2]"
  IC50: "1000 to 10000 nM"
- Compound: "COc1cc(C2SCCNc3c2c(-c2ccccn2)nn3C)c(C)cc1Cl (stereo not drawn) [D.35]"
  IC50: "1000 to 10000 nM"

Query: Need IC50 of Cc1cc(C#N)ccc1C1SCCNc2onc(-c3ccccn3)c21 (stereo not drawn) [G.9] , thanks.
Result: < 100 nM

Query: Item Cc1cc(Cl)ccc1C1SCCNc2c1c(-c1cc(Cl)ccn1)nn2C (stereo not drawn) [D.24] has what recorded IC50?
Result: < 100 nM

Query: So what does the record say about IC50 for Cc1cc(C#CCCO)ccc1[C@@H]1SC[C@H](C)Nc2c1c(-c1ccccn1)nn2C (single isomer, unassigned) [M.54] ?
Result: < 100 nM

Query: Value lookup for IC50; key = Cc1cc(Cl)ccc1C1SCCNc2c1c(-c1ccccn1)nn2C (stereo not drawn) [D.1]
Result: < 100 nM

Query: Requested field: IC50. Item: Cc1cc(Cl)ccc1[C@@H]1SC(C)(C)CNc2c1c(C)nn2C (single isomer, unassigned) [M.7]
Result: 1000 to 10000 nM

Query: Quick one: IC50 of Cc1cc(Cl)ccc1C1SCCNc2c1c(-c1ccccn1)nn2CC(F)(F)F (stereo not drawn) [D.104] ?
Result: < 100 nM

Query: Given Cc1ncccc1NC(=O)c1ccc(C2SCCNc3c2c(-c2ccccn2)nn3C)c(Cl)c1 (stereo not drawn) [F.1] , state its recorded IC50.
Result: < 100 nM

---

This section presents compounds with their documented Emax values.
- Tested on: IL-6 in A549 cells stimulated with IL-1β
- Test details: A549 Cell Assay to Measure Inflammation Markers (inhibition of IL-1β-induced IL-6)
- Assay type: cell-based
- Assay setup: Homo sapiens, A549, A549 Cell Assay to Measure Inflammation Markers; intrinsic activity, Emax class ranges

- Compound: "Cn1nc(-c2ccc(Br)cn2)c2c1NCCSC2c1ccc(Cl)cc1Cl (centres unmarked)"
  Target or test system: "IL-6 in A549 cells stimulated with IL-1β"
  Emax: "< 50%"
- Compound: "Cc1ncccc1NC(=O)c1ccc(-c2nn(C)c3c2C(c2ccc(Cl)cc2Cl)SCCN3)nc1 (centres unmarked)"
  Target or test system: "IL-6 in A549 cells stimulated with IL-1β"
  Emax: "< 50%"
- Compound: "Cc1cc(Cl)ccc1C1SCCNc2c1c([C@@H]1CCCN1)nn2C (mixture of isomers)"
  Target or test system: "IL-6 in A549 cells stimulated with IL-1β"
  Emax: "< 50%"

Query: # get_value(readout= Emax, system= IL-6 in A549 cells stimulated with IL-1β) for Cc1nn(C)c2c1C(c1ccc(Br)cc1Cl)SC(C)(C)CN2 (centres unmarked)
Result: > 50%

Query: Lookup: Emax / IL-6 in A549 cells stimulated with IL-1β / Cc1cc(Cl)ccc1C1SC(CCO)C(C)Nc2c1c(C)nn2C (single isomer, unassigned)
Result: > 70%

---

pIC50 tested on Glucocorticoid Receptor (GR) (Homo sapiens): recorded values
pIC50: −log10 of the molar value.

- Molecule: "Cc1ncccc1NC(=O)c1cc(C2SCCNc3c2c(-c2ccccn2)nn3C)c(C)s1 (stereo not drawn) [F.6]"
  pIC50: "5.00 to 6.00"
- Molecule: "Cc1cc(OCc2cccnc2C)ccc1C1SCCNc2c1c(-c1ccccn1)nn2C (stereo not drawn)"
  pIC50: "> 7.00"

Query: # returns recorded pIC50 (system: Glucocorticoid Receptor (GR) (Homo sapiens)) for CCc1cc(Cl)ccc1C1SCCNc2c1c(-c1ccccn1)nn2C (stereo not drawn)
Result: > 7.00

Query: Notebook entry, Glucocorticoid Receptor (GR) (Homo sapiens) assay: pIC50 of CCn1nc(C2CC2)c2c1NCC(C)(C)SC2c1ccc(Cl)cc1C (stereo not drawn) [D.107] = ?
Result: > 7.00

Query: // map CCn1nc(-c2ccccn2)c2c1NCCSC2c1ccc(C(=O)Nc2n[nH]cc2C#N)cc1C (stereo not drawn) [S.8] to recorded pIC50 (system: Glucocorticoid Receptor (GR) (Homo sapiens))
Result: > 7.00

Query: Lookup: pIC50 / Glucocorticoid Receptor (GR) (Homo sapiens) / CCn1nc(-c2ccccn2)c2c1N[C@@H](C)CS[C@H]2c1ccc(C#CC(C)(C)O)cc1C (single isomer, unassigned) [M.32]
Result: > 7.00

Query: Record lookup: for Glucocorticoid Receptor (GR) (Homo sapiens), what pIC50 belongs to Cn1nc(C2CCCC2)c2c1NCC(C)(C)SC2c1ccc(Cl)cc1Cl (stereo not drawn) [D.79] ?
Result: > 7.00

Query: I'm curious: which pIC50 was measured for Cn1nc(-c2cccs2)c2c1NCCSC2c1ccc(Cl)cc1Cl (stereo not drawn) [D.101] tested on Glucocorticoid Receptor (GR) (Homo sapiens)?
Result: > 7.00

Query: Report pIC50 for CCn1nc(-c2ccccn2)c2c1NCCSC2c1ccc(C(=O)Nc2cccnc2C)cc1C(F)(F)F (single isomer, unassigned) [M.68] tested on Glucocorticoid Receptor (GR) (Homo sapiens).
Result: 5.00 to 6.00

---

Target sequence: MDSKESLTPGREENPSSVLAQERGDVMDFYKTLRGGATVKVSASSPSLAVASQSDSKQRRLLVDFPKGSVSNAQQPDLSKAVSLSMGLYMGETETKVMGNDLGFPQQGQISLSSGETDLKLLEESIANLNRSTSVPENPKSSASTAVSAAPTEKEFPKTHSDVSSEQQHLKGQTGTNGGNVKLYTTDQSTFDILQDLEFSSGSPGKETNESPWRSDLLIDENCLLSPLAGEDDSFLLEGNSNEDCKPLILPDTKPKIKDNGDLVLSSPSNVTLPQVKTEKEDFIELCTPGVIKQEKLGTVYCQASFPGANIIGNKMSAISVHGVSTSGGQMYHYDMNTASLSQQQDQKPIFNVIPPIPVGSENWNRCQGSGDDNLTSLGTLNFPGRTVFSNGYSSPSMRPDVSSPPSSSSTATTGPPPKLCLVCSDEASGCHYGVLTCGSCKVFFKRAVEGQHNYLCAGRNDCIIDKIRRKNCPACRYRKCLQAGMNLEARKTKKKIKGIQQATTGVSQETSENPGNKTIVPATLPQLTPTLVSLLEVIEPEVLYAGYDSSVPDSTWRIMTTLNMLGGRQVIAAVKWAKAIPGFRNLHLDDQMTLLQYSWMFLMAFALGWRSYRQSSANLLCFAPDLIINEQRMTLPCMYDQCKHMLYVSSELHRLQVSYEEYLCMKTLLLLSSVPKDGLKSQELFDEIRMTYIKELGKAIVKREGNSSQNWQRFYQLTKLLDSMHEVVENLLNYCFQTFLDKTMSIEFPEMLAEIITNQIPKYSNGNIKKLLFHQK
molecules and their reported IC50

Below, 3 molecules whose answers are already recorded.
- Molecule: "Cn1nc(-c2ccccn2)c2c1NCCSC2c1ccc(-c2cncc(C(N)=O)c2)cc1Cl (stereo not shown) [U.7]"
  IC50: "1000 to 10000 nM"
- Molecule: "Cc1cc(C#CCCO)ccc1[C@@H]1SC[C@@H](C)Nc2c1c(-c1ccccn1)nn2C (single isomer, unassigned) [M.55]"
  IC50: "< 100 nM"
- Molecule: "Cc1cc(C(=O)Nc2cccnc2C)ccc1C1SCCNc2c1c(-c1ccccn1)nn2C (stereo not shown)"
  IC50: "< 100 nM"

Query: Returns the measured IC50 for the input molecule. Input: CC1CSC(c2ccc(Br)cc2C(F)(F)F)c2c(-c3ccccn3)nn(C)c2N1 (stereo not shown) [K.11]
Result: < 100 nM

---

Recorded measurements of pIC50, one per entry
- Target or test system: UniProt:P04150
- Sequence (P04150 1-777): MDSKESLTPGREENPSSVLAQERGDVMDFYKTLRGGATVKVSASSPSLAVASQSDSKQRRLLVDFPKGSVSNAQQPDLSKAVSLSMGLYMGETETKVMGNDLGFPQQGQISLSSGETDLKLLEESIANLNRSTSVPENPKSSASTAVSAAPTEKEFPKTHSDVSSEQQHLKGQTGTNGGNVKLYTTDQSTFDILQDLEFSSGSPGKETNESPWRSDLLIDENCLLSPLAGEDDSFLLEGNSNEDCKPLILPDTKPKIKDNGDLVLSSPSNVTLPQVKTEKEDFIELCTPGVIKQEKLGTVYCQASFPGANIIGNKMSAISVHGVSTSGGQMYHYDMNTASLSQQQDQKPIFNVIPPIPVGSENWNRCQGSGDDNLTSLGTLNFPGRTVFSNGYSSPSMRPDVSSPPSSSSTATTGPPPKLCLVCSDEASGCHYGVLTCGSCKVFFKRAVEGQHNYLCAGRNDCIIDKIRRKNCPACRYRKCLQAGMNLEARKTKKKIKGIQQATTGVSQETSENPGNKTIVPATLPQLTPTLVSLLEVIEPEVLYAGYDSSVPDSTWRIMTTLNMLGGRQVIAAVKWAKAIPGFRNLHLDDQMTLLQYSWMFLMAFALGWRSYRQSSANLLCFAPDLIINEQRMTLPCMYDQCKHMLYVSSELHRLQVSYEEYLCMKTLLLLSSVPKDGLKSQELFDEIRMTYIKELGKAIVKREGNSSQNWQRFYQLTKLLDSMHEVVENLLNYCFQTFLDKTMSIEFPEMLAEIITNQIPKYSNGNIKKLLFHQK
pIC50: −log10 of the molar value.

- Compound: "COc1cccc(C2SCCNc3c2c(C)nn3C)c1 (centres unmarked)"
  pIC50: "5.00 to 6.00"
- Compound: "CCn1nc(-c2ccccn2)c2c1N[C@H](C)CS[C@H]2c1ccc(C#CCO)cc1C (single isomer, unassigned)"
  pIC50: "> 7.00"
- Compound: "CCn1nc(-c2ccccn2)c2c1NCCSC2c1ccc(C#N)cc1C (centres unmarked) [G.10]"
  pIC50: "> 7.00"
- Compound: "Cc1cc(C#CCO)ccc1[C@@H]1SC[C@H](C)Nc2c1c(-c1ccccn1)nn2C (single isomer, unassigned)"
  pIC50: "> 7.00"
- Compound: "Cn1nc(-c2ccccn2)c2c1NCCSC2c1ccc(-c2cnn(CCN3CCOCC3)c2)cc1Cl (centres unmarked)"
  pIC50: "5.00 to 6.00"

Query: Find the recorded pIC50 belonging to Cn1nc(-c2ccccn2)c2c1NCCSC2c1ccc(-c2cncc(C(=O)N3CCOCC3)c2)cc1Cl (centres unmarked) and report it.
Result: 6.00 to 7.00

Query: Which pIC50 is listed for Cn1nc(-c2ccccn2)c2c1NCCSC2c1ccc(Cl)cc1 (centres unmarked) ?
Result: 6.00 to 7.00

Query: What does the data say about its pIC50? Entry: Cc1cc(Br)ccc1C1SCCNc2onc(-c3ccccn3)c21 (centres unmarked)
Result: > 7.00

Query: # get_value(readout='pIC50', item= Cc1ccc(C2SCCNc3c2c(-c2ccccn2)nn3C)c(C)c1 (centres unmarked) )
Result: > 7.00

Query: Entry under review: Cc1ccccc1C1SCCNc2c1c(-c1ccccn1)nn2C (centres unmarked) . Reported pIC50?
Result: > 7.00

Query: Query (compound): Cc1cc(C#N)ccc1C1SCCNc2c1c(-c1ccccn1)nn2C (centres unmarked) [G.8] ; field requested: pIC50
Result: > 7.00

Query: May I ask what pIC50 has been recorded for Cc1ncccc1NC(=O)c1ccc([C@H]2SCCNc3c2c(-c2ccccn2)nn3C)c(Cl)c1 ?
Result: > 7.00

Query: Look up pIC50 for this compound: CCn1nc(-c2ccccn2)c2c1NCCSC2c1ccc(C#N)cc1C (single isomer, unassigned) [M.22]
Result: > 7.00

Query: Quick one: pIC50 of CCn1nc(-c2ccccn2)c2c1N[C@H](C)CS[C@H]2c1ccc(CCC(C)(C)O)cc1C (single isomer, unassigned) ?
Result: > 7.00

Query: Would you kindly share the measured pIC50 for Cc1nn(C)c2c1C(c1ccc(Cl)cc1)SC(CCO)CN2 (centres unmarked) ?
Result: > 7.00

Query: Need pIC50 of Cc1cc(S(C)(=O)=O)ccc1C1SCCNc2c1c(-c1ccccn1)nn2C (centres unmarked) , thanks.
Result: 6.00 to 7.00
